Each recorded value in this set is attributed to ChEMBL document CHEMBL1132460.

target: UniProt P08254; experiment: Inhibitory concentration against human matrix metalloprotease-3 (MMP-3); conditions: read-out: IC50

compound: COc1ccc(S(=O)(=O)N2Cc3cc(NC(=O)CCC(=O)O)ccc3CC2C(=O)NO)cc1 (configuration not stated)
target.of.assay: UniProt P08254
IC50: 20 nM
--
compound: Nc1ccc2c(c1)CN(S(=O)(=O)c1ccc(-c3ccc(F)cc3)cc1)C(C(=O)NO)C2 (configuration not stated)
target.of.assay: UniProt P08254
IC50: 20 nM
--
compound: O=C(O)C1Cc2ccccc2CN1S(=O)(=O)c1ccc(-c2ccccn2)s1 (configuration not stated)
target.of.assay: UniProt P08254
IC50: 2000 nM
--
compound: COc1ccc(S(=O)(=O)N2Cc3cc(NC(=O)[C@H](C)NC(=O)OC(C)(C)C)ccc3CC2C(=O)NO)cc1 (some centres not stated)
target.of.assay: UniProt P08254
IC50: 20 nM
--
compound: CN(C)c1ccc(-c2ccc(S(=O)(=O)N3Cc4ccccc4CC3C(=O)NO)cc2)cc1 (configuration not stated)
target.of.assay: UniProt P08254
IC50: 20 nM
--
compound: COc1ccc(S(=O)(=O)N2Cc3ccccc3C[C@H]2C(=O)NO)cc1
target.of.assay: UniProt P08254
IC50: 7000 nM
--
compound: O=C(NO)C1Cc2ccccc2CN1S(=O)(=O)c1ccc2oc3ccccc3c2c1 (configuration not stated)
target.of.assay: UniProt P08254
IC50: 100 nM
--
compound: O=C(O)C1Cc2ccccc2CN1S(=O)(=O)c1ccc(-n2nccn2)cc1 (configuration not stated)
target.of.assay: UniProt P08254
IC50: 600 nM
--
compound: O=C(O)C1Cc2ccccc2CN1S(=O)(=O)c1ccc(Oc2ccc(Cl)cc2)cc1 (configuration not stated)
target.of.assay: UniProt P08254
IC50: 500 nM
--
compound: CSc1nccc(-c2ccc(S(=O)(=O)N3Cc4ccccc4CC3C(=O)NO)s2)n1 (configuration not stated)
target.of.assay: UniProt P08254
IC50: 2000 nM
--
compound: N#Cc1ccc(Oc2ccc(S(=O)(=O)N3Cc4ccccc4CC3C(=O)O)cc2)cc1 (configuration not stated)
target.of.assay: UniProt P08254
IC50: 1000 nM
--
compound: CCOC(=O)Oc1ccc2c(c1)CN(S(=O)(=O)c1ccc(OC)cc1)C(C(=O)NO)C2 (configuration not stated)
target.of.assay: UniProt P08254
IC50: 20 nM

====

biological target: Stromelysin-1 (Homo sapiens, UniProt P08254); experiment: Inhibitory concentration against human matrix metalloprotease-3 (MMP-3)
Sequence (P08254 whole entry): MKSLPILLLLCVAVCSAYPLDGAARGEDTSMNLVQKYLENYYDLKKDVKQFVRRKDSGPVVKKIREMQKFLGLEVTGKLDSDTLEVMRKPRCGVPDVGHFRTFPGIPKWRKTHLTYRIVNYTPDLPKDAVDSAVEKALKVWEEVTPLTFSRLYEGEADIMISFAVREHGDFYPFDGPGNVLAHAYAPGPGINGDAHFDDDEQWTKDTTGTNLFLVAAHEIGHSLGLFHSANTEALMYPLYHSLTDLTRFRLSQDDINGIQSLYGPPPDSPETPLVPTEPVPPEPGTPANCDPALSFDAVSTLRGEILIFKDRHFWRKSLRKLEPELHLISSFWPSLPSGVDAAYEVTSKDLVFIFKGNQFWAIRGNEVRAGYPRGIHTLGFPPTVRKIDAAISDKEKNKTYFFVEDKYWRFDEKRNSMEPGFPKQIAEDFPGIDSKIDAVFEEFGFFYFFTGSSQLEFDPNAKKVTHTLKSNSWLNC
Measured IC50 values are reported for all entries that follow.

molecule: COc1ccc(S(=O)(=O)N2Cc3ncn(C)c3C[C@@H]2C(=O)O)cc1
IC50 (nM l-1): 10000
//
molecule: COc1ccc(S(=O)(=O)N2Cc3cc(NC(=O)[C@H](C)N)ccc3CC2C(=O)O)cc1 (stereo partly specified)
IC50 (nM l-1): 10000
//
molecule: CCCCCCCCCCCCCCCCS(=O)(=O)N1Cc2ccccc2CC1C(=O)NO (stereo unspecified)
IC50 (nM l-1): 10000
//
molecule: CSc1nccc(-c2ccc(S(=O)(=O)N3Cc4ccccc4CC3C(=O)O)s2)n1 (stereo unspecified)
IC50 (nM l-1): 10000
//
molecule: O=C(NO)C1Cc2ccccc2CN1S(=O)(=O)Cc1ccccc1 (stereo unspecified)
IC50 (nM l-1): 10000
//
molecule: O=C(O)[C@@H]1Cc2ccccc2CN1S(=O)(=O)c1ccc(-c2ccc(F)cc2)cc1
IC50 (nM l-1): 10000

====

assay: Affinity ratio of IC50 of MMP-3 to IC50 of MMP-8
Label rule, in plain words: log10(IC50 MMP-3/IC50 MMP-8) of 0.7 and up is 1, under 0.7 is 0.

molecule: CSc1nccc(-c2ccc(S(=O)(=O)N3Cc4ccccc4CC3C(=O)NO)s2)n1 (centres undefined)
assigned.class: 1

molecule: COc1ccc(S(=O)(=O)N2Cc3cc(NC(=O)CCC(=O)O)ccc3CC2C(=O)NO)cc1 (centres undefined)
assigned.class: 0

molecule: COc1ccc(S(=O)(=O)N2Cc3ccccc3C[C@H]2C(=O)NO)cc1
assigned.class: 1

molecule: O=C(NO)C1Cc2ccccc2CN1S(=O)(=O)c1ccc(C(F)(F)F)cc1 (centres undefined)
assigned.class: 1

molecule: CCCCOc1ccc(S(=O)(=O)N2Cc3ccccc3CC2C(=O)NO)cc1 (centres undefined)
assigned.class: 1

molecule: CC(C)(C)OC(=O)Nc1ccc2c(c1)CN(S(=O)(=O)c1ccc(-c3ccc(F)cc3)cc1)C(C(=O)NO)C2 (centres undefined)
assigned.class: 1

molecule: COc1ccc(S(=O)(=O)Oc2ccc3c(c2)CN(S(=O)(=O)c2ccc(OC)cc2)C(C(=O)NO)C3)cc1 (centres undefined)
assigned.class: 0

molecule: CCCCCCCCCCCCCCCCS(=O)(=O)N1Cc2ccccc2CC1C(=O)NO (centres undefined)
assigned.class: 0

====

molecular target: Neutrophil collagenase (Homo sapiens); experiment: Inhibitory concentration against human matrix metalloprotease-8 (human neutrophil collagenase, MMP-8)
Sequence (P22894 whole entry): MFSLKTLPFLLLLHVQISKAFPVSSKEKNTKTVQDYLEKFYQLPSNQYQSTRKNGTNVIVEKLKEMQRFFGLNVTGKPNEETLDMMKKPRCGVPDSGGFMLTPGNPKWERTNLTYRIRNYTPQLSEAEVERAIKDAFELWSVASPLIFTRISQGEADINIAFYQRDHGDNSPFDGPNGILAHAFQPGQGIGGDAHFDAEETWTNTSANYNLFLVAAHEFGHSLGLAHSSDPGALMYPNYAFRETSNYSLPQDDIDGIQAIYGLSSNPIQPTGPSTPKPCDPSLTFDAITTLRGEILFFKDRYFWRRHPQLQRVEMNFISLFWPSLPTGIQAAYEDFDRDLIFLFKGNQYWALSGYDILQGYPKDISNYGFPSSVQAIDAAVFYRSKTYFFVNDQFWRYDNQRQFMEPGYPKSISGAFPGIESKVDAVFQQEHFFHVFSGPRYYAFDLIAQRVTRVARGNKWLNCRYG
Listing of entries alongside the reported IC50.

molecule: CCCCOc1ccc(S(=O)(=O)N2Cc3ccccc3CC2C(=O)NO)cc1 (configuration not stated)
target.of.assay: Neutrophil collagenase (Homo sapiens)
IC50 (nM): 2

molecule: CSc1nccc(-c2ccc(S(=O)(=O)N3Cc4ccccc4CC3C(=O)NO)s2)n1 (configuration not stated)
target.of.assay: Neutrophil collagenase (Homo sapiens)
IC50 (nM): 20

molecule: O=C(O)C1Cc2ccccc2CN1S(=O)(=O)c1ccc(Oc2ccc(Cl)cc2)cc1 (configuration not stated)
target.of.assay: Neutrophil collagenase (Homo sapiens)
IC50 (nM): 20

molecule: O=C(Nc1ccc(S(=O)(=O)N2Cc3ccccc3CC2C(=O)NO)cc1)OCc1ccccc1 (configuration not stated)
target.of.assay: Neutrophil collagenase (Homo sapiens)
IC50 (nM): 800

molecule: COc1ccc(S(=O)(=O)N2Cc3cc(N)ccc3CC2C(=O)O)cc1 (configuration not stated)
target.of.assay: Neutrophil collagenase (Homo sapiens)
IC50 (nM): 2000

molecule: O=C(NO)C1Cc2ccccc2CN1S(=O)(=O)c1ccc(Oc2ccccc2)cc1 (configuration not stated)
target.of.assay: Neutrophil collagenase (Homo sapiens)
IC50 (nM): 2

molecule: O=C(O)C1Cc2ccccc2CN1S(=O)(=O)c1ccc(-c2nc3ccccc3o2)cc1 (configuration not stated)
target.of.assay: Neutrophil collagenase (Homo sapiens)
IC50 (nM): 80

====

Reported log10(IC50 MMP-3/IC50 MMP-8) values are given for each entry in this list.
assay: Affinity ratio of IC50 of MMP-3 to IC50 of MMP-8

compound: COc1ccc(OC(=O)Nc2cccc(S(=O)(=O)N3Cc4ccccc4CC3C(=O)NO)c2)cc1 (centres undefined)
log10(IC50 MMP-3/IC50 MMP-8): 1.18
//
compound: CCOC(=O)Oc1ccc2c(c1)CN(S(=O)(=O)c1ccc(OC)cc1)C(C(=O)NO)C2 (centres undefined)
log10(IC50 MMP-3/IC50 MMP-8): 1
//
compound: O=C(NO)C1Cc2ccccc2CN1S(=O)(=O)c1ccc(N2CCOCC2)cc1 (centres undefined)
log10(IC50 MMP-3/IC50 MMP-8): 0.48
//
compound: CN(C)c1cccc2c(S(=O)(=O)N3Cc4ccccc4CC3C(=O)NO)cccc12 (centres undefined)
log10(IC50 MMP-3/IC50 MMP-8): 0.3
//
compound: COc1ccc(S(=O)(=O)N2Cc3ncn(C)c3C[C@@H]2C(=O)NO)cc1
log10(IC50 MMP-3/IC50 MMP-8): 0.82
//
compound: COc1ccc(S(=O)(=O)N2Cc3cc(NC(=O)[C@H](CC(=O)OC(C)(C)C)NC(=O)Cc4ccccc4)ccc3CC2C(=O)NO)cc1 (some centres undefined)
log10(IC50 MMP-3/IC50 MMP-8): 0.6
//
compound: O=C(NO)C1Cc2ccccc2CN1S(=O)(=O)Cc1ccc(-c2ccccn2)s1 (centres undefined)
log10(IC50 MMP-3/IC50 MMP-8): 1
//
compound: O=C(NO)C1Cc2ccccc2CN1S(=O)(=O)c1ccc2ccccc2c1 (centres undefined)
log10(IC50 MMP-3/IC50 MMP-8): 0.76
//
compound: O=C(NO)C1Cc2ccccc2CN1S(=O)(=O)CCc1ccncc1 (centres undefined)
log10(IC50 MMP-3/IC50 MMP-8): 1.48
//
compound: COc1ccc(S(=O)(=O)N2Cc3ncn(C)c3C[C@@H]2C(=O)O)cc1
log10(IC50 MMP-3/IC50 MMP-8): 1
//
compound: O=C(NO)C1Cc2ccccc2CN1S(=O)(=O)c1ccc(-c2ccc(Cl)cc2)cc1 (centres undefined)
log10(IC50 MMP-3/IC50 MMP-8): 0.82
//
compound: COc1ccc(S(=O)(=O)N2Cc3cc([N+](=O)[O-])ccc3CC2C(=O)NO)cc1 (centres undefined)
log10(IC50 MMP-3/IC50 MMP-8): 1
//
compound: O=C(NO)C1Cc2ccccc2CN1S(=O)(=O)c1cc(S(=O)(=O)c2ccccc2)cs1 (centres undefined)
log10(IC50 MMP-3/IC50 MMP-8): 0.7
//
compound: O=C(NO)C1Cc2ccccc2CN1S(=O)(=O)c1cc(Br)c(Br)s1 (centres undefined)
log10(IC50 MMP-3/IC50 MMP-8): 1.3
//
compound: O=C(c1ccccc1)c1ccc(S(=O)(=O)N2Cc3ccccc3CC2C(=O)NO)cc1 (centres undefined)
log10(IC50 MMP-3/IC50 MMP-8): 1
//
compound: COc1ccc(S(=O)(=O)N2Cc3cc(NC(=O)[C@H](C)NC(=O)OC(C)(C)C)ccc3CC2C(=O)NO)cc1 (some centres undefined)
log10(IC50 MMP-3/IC50 MMP-8): 1
//
compound: O=C(NO)C1Cc2ccccc2CN1S(=O)(=O)c1ccc(OCc2ccc(F)cc2)cc1 (centres undefined)
log10(IC50 MMP-3/IC50 MMP-8): 1
//
compound: CC(=O)Nc1ccc(S(=O)(=O)N2Cc3ccccc3CC2C(=O)NO)cc1 (centres undefined)
log10(IC50 MMP-3/IC50 MMP-8): 0.85
//
compound: O=C(NO)[C@H]1Cc2c([nH]c3ccccc23)CN1S(=O)(=O)c1ccc(N2CCOCC2)cc1
log10(IC50 MMP-3/IC50 MMP-8): 0.63
